Measured values drawn from ChEMBL document CHEMBL2046422 for this set.

- Target or test system: UniProt O14684
- Sequence (O14684 whole entry): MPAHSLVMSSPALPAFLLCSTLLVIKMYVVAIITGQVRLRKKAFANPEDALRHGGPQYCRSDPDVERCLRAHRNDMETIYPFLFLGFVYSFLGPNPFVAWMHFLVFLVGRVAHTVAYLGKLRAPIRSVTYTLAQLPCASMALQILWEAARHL
- Assay name: Inhibition of mPGES-1 derived from IL1beta and TNFalpha stimulated human HeLa cells microsomal fraction using PGH2 as substrate preincubated for 30 mins prior to substrate addition measured after 1 min by LC-MS/MS analysis
Property: IC50 (nM)
Give just the number in nM; leave the unit off.

The cases that follow already have their IC50 on record.
[[record]]
smiles_repr = "CCCc1nc2ccc(NC(=O)c3c(F)cccc3Cl)cc2c(=O)n1Cc1cccc(Cl)c1"
experimental_result = 370

[[record]]
smiles_repr = "CCCc1nc2ccc(NC(=O)c3ccccc3C)cc2c(=O)n1Cc1cccc(Cl)c1"
experimental_result = 260

[[record]]
smiles_repr = "CCCc1nc2ccc(NC(=O)c3ccccc3Cl)cc2c(=O)n1Cc1ccc(-c2cccc(OC)c2)cc1"
experimental_result = 210

[[record]]
smiles_repr = "CCCc1nc2ccc(NC(=O)c3ccccc3Cl)cc2c(=O)n1Cc1ccc(-c2cccc(Cl)c2)cc1"
experimental_result = 130

[[record]]
smiles_repr = "CCCc1nc2ccc(NC(=O)c3ccccc3Cl)cc2c(=O)n1Cc1ccc(-c2ccccc2)cc1"
experimental_result = 220


Documented IC50 of CCCc1nc2ccc(NC(=O)c3ccccc3Cl)cc2c(=O)n1Cc1cccc(Cl)c1 : 360
